Attribution: paper PMC6222450

- TEST SYSTEM: dopaminergic D2LR (Homo sapiens, UniProt P14416)
- Sequence (P14416 whole entry): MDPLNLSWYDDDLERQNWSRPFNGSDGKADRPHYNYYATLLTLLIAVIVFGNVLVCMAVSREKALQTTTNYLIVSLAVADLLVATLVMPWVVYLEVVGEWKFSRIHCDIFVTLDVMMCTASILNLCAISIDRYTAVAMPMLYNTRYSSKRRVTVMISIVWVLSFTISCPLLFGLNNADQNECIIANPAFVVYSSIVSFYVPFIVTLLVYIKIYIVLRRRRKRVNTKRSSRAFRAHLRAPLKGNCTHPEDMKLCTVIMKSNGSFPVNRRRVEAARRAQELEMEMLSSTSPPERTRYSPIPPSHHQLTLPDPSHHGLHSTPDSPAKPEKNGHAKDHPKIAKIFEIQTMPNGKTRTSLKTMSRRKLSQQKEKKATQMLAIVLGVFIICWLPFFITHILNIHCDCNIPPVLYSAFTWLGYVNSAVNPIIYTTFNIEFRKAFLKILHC
- RUN DESCRIPTION: Radioligand binding assay, D2LR, [3H]-Raclopride
- CONDITION: human D2L receptor stably expressed in HEK-293 cells; read-out: Ki D2 [3H]-Raclopride
OUTCOME MEASURE: Ki
The answer should read as a number with its unit following.

For `CN1CCN(c2nc(N)nc(CN3C(=O)N(Cc4ccc(Cl)cc4)C(=O)C3(C)C)n2)CC1` the compound record lists Ki as 5.01 µM

* * *

Collected Ki values appear next to each entry.
Target sequence: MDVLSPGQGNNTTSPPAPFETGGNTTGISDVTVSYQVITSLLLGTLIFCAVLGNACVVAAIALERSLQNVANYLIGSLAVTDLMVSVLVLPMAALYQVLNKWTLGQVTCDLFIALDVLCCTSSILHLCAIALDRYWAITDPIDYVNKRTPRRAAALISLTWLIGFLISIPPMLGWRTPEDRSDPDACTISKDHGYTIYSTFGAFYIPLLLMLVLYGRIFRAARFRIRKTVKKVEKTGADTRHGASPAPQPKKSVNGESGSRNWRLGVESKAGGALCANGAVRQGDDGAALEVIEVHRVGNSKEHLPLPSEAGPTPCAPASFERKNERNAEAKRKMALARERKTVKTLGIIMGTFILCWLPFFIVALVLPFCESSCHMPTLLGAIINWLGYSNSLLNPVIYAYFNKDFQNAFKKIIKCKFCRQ

Reference set (3 entries):
CN1CCN(c2nc(N)nc(CN3C(=O)NC(C)(c4cc(Cl)ccc4Cl)C3=O)n2)CC1 (stereo not shown)    26.2 µM
COc1cccc(CN2C(=O)N(Cc3nc(N)nc(N4CCN(C)CC4)n3)C(=O)C2(C)C)c1    23.9 µM
Cc1cccc(CN2C(=O)N(Cc3nc(N)nc(N4CCN(C)CC4)n3)C(=O)C2(C)C)c1    17 µM

Now for another entry.
For `CN1CCN(c2nc(N)nc(CN3C(=O)N(Cc4cccc(F)c4)C(C)(C)C3=O)n2)CC1` the compound record lists Ki as 37.1 µM

* * *

- RUN DESCRIPTION: Lipophilicity by RP-TLC
- Assay type: physicochemical
- CONDITION: RP-18 TLC, water/methanol, extrapolated to 100% water
Record Criterion met whenever RM0 is at 4 or higher; record Criterion not met when lower.

CN1CCN(c2nc(N)nc(Cc3cccc4ccccc34)n2)CC1 [Compound 1, reference compound]    Criterion not met
CN1CCN(c2nc(N)nc(CN3C(=O)N(Cc4ccc(Cl)cc4)C(=O)C3(C)C)n2)CC1    Criterion not met
Cc1cccc(Cc2nc(N)nc(N3CCN(C)CC3)n2)c1 [Compound 3, reference compound]    Criterion not met
CN1CCN(c2nc(N)nc(CN3C(=O)NC(C)(c4ccc(Cl)c(Cl)c4Cl)C3=O)n2)CC1 (centres unmarked)    Criterion met
CN1CCN(c2nc(N)nc(CN3C(=O)N(Cc4ccc(Cl)cc4)C(C)(C)C3=O)n2)CC1    Criterion not met
CN1CCN(c2nc(N)nc(CN3C(=O)NC(C)(c4ccc5ccccc5c4)C3=O)n2)CC1 (centres unmarked)    Criterion not met

Alright, here's another compound for you.
Could you tell me if the measured RM0 of `CN1CCN(c2nc(N)nc(CN3C(=O)NC(c4ccc(Cl)cc4)(c4ccc(Cl)cc4)C3=O)n2)CC1` reaches 4 or more? Criterion met

* * *

- TEST SYSTEM: 5-HT1A (Homo sapiens, UniProt P08908)
- Construct: expressed in transfected cells; host or cells: HEK-293
- RUN DESCRIPTION: Radioligand binding assay, 5-HT1A, [3H]-8-OH-DPAT
- CONDITION: human receptor stably expressed in HEK-293 cells
Collected Ki values appear next to each entry.
Expressed in µM, but write only the number.

Reference set (5 entries):
CN1CCN(c2nc(N)nc(CN3C(=O)N(Cc4cccc(Br)c4)C(C)(C)C3=O)n2)CC1 [Compound 15]    12.9
CN1CCN(c2nc(N)nc(CN3C(=O)NC(C)(c4ccc5ccccc5c4)C3=O)n2)CC1 (centres unmarked) [Compound 26]    14.2
CN1CCN(c2nc(N)nc(CN3C(=O)N(Cc4ccc5ccccc5c4)C(C)(C)C3=O)n2)CC1 [Compound 18]    5.72
CN1CCN(c2nc(N)nc(CN3C(=O)NC(C)(c4ccc(Cl)cc4Cl)C3=O)n2)CC1 (centres unmarked) [Compound 22]    14
CN1CCN(c2nc(N)nc(CN3C(=O)NC(C)(c4ccc(Cl)cc4)C3=O)n2)CC1 (centres unmarked) [Compound 7]    28.1

For CN1CCN(c2nc(N)nc(CN3C(=O)NC(C)(c4cccc(Cl)c4)C3=O)n2)CC1 (centres unmarked) [Compound 20] the compound record lists Ki as 4.1

For CN1CCN(c2nc(N)nc(CN3C(=O)NC(C)(c4ccc(Cl)c(Cl)c4Cl)C3=O)n2)CC1 (centres unmarked) [Compound 23] the compound record lists Ki as 6.03

For CN1CCN(c2nc(N)nc(CN3C(=O)NC(C)(c4ccccc4)C3=O)n2)CC1 (centres unmarked) [Compound 19] the compound record lists Ki as 31.6

* * *

Collected pKi values appear next to each entry.
- TEST SYSTEM: human serotonin 5-HT6R (Homo sapiens)
- Sequence (P50406 whole entry): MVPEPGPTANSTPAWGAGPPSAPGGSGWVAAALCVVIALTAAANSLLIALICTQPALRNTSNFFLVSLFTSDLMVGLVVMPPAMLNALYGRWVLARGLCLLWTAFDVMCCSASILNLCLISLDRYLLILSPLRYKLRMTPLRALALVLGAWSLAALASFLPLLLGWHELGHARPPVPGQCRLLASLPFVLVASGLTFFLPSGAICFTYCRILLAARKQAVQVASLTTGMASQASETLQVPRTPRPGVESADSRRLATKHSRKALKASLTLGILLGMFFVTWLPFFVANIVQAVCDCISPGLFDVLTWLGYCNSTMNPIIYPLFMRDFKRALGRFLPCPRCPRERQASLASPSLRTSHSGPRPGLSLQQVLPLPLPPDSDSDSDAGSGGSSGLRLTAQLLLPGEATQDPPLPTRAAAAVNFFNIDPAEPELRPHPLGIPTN
The read-out pKi is expressed as -log10 of concentration in moles per litre.

Reference set (9 entries):
Cc1cccc(CN2C(=O)N(Cc3nc(N)nc(N4CCN(C)CC4)n3)C(=O)C2(C)C)c1    6.05
Cc1ccc(C2(C)NC(=O)N(Cc3nc(N)nc(N4CCN(C)CC4)n3)C2=O)cc1 (stereo not shown)    6.18
CN1CCN(c2nc(N)nc(CN3C(=O)N(Cc4cc(Cl)ccc4Cl)C(C)(C)C3=O)n2)CC1    6.22
CN1CCN(c2nc(N)nc(CN3C(=O)NC(C)(c4cc(Cl)ccc4Cl)C3=O)n2)CC1 (stereo not shown)    6.39
CN1CCN(c2nc(N)nc(CN3C(=O)N(Cc4cccc(F)c4)C(C)(C)C3=O)n2)CC1    6.35
CN1CCN(c2nc(N)nc(CN3C(=O)N(Cc4ccccc4)C(C)(C)C3=O)n2)CC1    6.23
CN1CCN(c2nc(N)nc(CN3C(=O)NC(C)(c4cccc(Cl)c4)C3=O)n2)CC1 (stereo not shown)    6.38
CN1CCN(c2nc(N)nc(CN3C(=O)N(Cc4ccc(Cl)cc4Cl)C(C)(C)C3=O)n2)CC1    6.69
CN1CCN(c2nc(N)nc(CN3C(=O)N(Cc4cccc(Cl)c4)C(C)(C)C3=O)n2)CC1    6.57

Now for another entry.
For `CN1CCN(c2nc(N)nc(CN3C(=O)N(Cc4ccc(F)cc4)C(C)(C)C3=O)n2)CC1` the compound record lists pKi as 6.18

* * *

Collected RM0 values appear next to each entry.
- RUN DESCRIPTION: Lipophilicity by RP-TLC
- Assay type: physicochemical
- CONDITION: RP-18 TLC, water/methanol, extrapolated to 100% water

Reference set (2 entries):
CN1CCN(c2nc(N)nc(Cc3cccc(Cl)c3)n2)CC1 [Compound 2, reference compound]    3.25
CN1CCN(c2nc(N)nc(CN3C(=O)NC(C)(c4ccc(Cl)cc4)C3=O)n2)CC1 (stereo not drawn) [Compound 7]    3.51

Now for another entry.
For CN1CCN(c2nc(N)nc(CN3C(=O)NC(C)(c4cccc5ccccc45)C3=O)n2)CC1 (stereo not drawn) [Compound 25] the compound record lists RM0 as 4.16

* * *

Sequence of the target: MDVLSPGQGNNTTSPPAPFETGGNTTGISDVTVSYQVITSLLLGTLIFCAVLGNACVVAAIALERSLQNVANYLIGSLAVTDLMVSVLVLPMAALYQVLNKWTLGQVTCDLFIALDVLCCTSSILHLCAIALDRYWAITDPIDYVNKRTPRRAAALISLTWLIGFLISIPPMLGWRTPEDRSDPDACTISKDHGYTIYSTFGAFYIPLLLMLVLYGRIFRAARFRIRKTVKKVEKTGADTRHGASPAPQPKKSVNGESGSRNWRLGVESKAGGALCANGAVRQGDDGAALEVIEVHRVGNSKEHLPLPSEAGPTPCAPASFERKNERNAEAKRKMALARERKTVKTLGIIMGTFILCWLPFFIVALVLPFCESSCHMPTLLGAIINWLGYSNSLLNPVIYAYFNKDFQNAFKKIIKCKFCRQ
Collected Ki values appear next to each entry.
Expressed in µM, but write only the number.

Reference set (2 entries):
CN1CCN(c2nc(N)nc(CN3C(=O)N(Cc4ccccc4)C(C)(C)C3=O)n2)CC1    42.6
Cc1ccc(C2(C)NC(=O)N(Cc3nc(N)nc(N4CCN(C)CC4)n3)C2=O)cc1 (centres unmarked)    22.3

For `CN1CCN(c2nc(N)nc(CN3C(=O)N(Cc4cc(Cl)ccc4Cl)C(C)(C)C3=O)n2)CC1` the molecule record lists Ki as 4.16

For `CN1CCN(c2nc(N)nc(CN3C(=O)N(Cc4ccc(Cl)cc4)C(=O)C3(C)C)n2)CC1` the molecule record lists Ki as 15.4

For `CN1CCN(c2nc(N)nc(CN3C(=O)N(Cc4ccc(F)cc4)C(C)(C)C3=O)n2)CC1` the molecule record lists Ki as 48.4

For CN1CCN(c2nc(N)nc(CN3C(=O)NC(C)(c4cccc5ccccc45)C3=O)n2)CC1 (centres unmarked) the molecule record lists Ki as 7.15

For `CN1CCN(c2nc(N)nc(CN3C(=O)N(Cc4ccc(Cl)cc4Cl)C(C)(C)C3=O)n2)CC1` the molecule record lists Ki as 7.69

For `CN1CCN(c2nc(N)nc(CN3C(=O)N(Cc4cccc(Cl)c4)C(C)(C)C3=O)n2)CC1` the molecule record lists Ki as 13.6
